# MEASURED_ON: T1, Proleukin® (aldesleukin) (human, UniProt P60568 21-153, limits assumed)
# T1 construct: Variant of human wt IL-2 with C145S (C125S on mature IL-2); also called IL-2 (Proleukin®); human IL-2 (Proleukin)
# TEST_NAME: ELISA, coated Proleukin, HEK293F supernatant 1:2
The threshold is inclusive: ELISA value (wash 3x every hour for 4 HRS) of exactly 5000 luminescence signal counts as True; values below receive False.

[ask] Has Antibody No: 3 (antibody, human IgG1, kappa, N297A, V domains shown, VH WT; VK A50S; HEK293F supernatant) VH: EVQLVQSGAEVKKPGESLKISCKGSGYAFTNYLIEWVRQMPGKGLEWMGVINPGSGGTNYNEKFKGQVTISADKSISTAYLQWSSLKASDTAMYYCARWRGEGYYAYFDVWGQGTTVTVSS VL: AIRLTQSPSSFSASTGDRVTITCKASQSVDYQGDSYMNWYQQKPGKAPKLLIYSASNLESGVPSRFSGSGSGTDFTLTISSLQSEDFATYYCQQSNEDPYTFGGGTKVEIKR a recorded ELISA value (wash 3x every hour for 4 HRS) greater than or equal to 5000 luminescence signal?
[reply] False

[ask] Has Antibody No: 23 (antibody, human IgG1, kappa, N297A, V domains shown, VK A50S; HEK293F supernatant) VH: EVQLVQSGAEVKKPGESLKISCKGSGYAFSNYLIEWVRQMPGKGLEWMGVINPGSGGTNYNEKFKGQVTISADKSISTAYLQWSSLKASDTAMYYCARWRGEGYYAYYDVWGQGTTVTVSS VL: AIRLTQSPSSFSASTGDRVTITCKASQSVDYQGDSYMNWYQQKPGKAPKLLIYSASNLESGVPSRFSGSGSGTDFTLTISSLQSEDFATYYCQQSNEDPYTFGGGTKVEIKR a recorded ELISA value (wash 3x every hour for 4 HRS) greater than or equal to 5000 luminescence signal?
[reply] False

[ask] Has Antibody No: 24 (antibody, human IgG1, kappa, N297A, V domains shown, VK A50T; HEK293F supernatant) VH: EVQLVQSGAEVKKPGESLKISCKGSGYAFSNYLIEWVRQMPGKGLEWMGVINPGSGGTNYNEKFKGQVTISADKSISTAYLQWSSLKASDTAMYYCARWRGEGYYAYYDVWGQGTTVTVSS VL: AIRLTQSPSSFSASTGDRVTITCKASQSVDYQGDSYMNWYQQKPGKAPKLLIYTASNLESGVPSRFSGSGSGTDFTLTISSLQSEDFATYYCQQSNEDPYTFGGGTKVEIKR a recorded ELISA value (wash 3x every hour for 4 HRS) greater than or equal to 5000 luminescence signal?
[reply] False

[ask] Has Antibody No: 5 (antibody, human IgG1, kappa, N297A, V domains shown, VH WT; VK M33L + A50S; HEK293F supernatant) VH: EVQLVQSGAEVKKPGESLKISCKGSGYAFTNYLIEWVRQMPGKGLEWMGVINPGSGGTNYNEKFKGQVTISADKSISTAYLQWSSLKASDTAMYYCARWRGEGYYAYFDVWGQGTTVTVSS VL: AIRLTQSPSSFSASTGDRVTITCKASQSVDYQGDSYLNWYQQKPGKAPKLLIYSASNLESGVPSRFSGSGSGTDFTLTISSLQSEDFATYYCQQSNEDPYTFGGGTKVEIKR a recorded ELISA value (wash 3x every hour for 4 HRS) greater than or equal to 5000 luminescence signal?
[reply] False

[ask] Has Antibody No: 33 (antibody, human IgG1, kappa, N297A, V domains shown, VK A50S; HEK293F supernatant) VH: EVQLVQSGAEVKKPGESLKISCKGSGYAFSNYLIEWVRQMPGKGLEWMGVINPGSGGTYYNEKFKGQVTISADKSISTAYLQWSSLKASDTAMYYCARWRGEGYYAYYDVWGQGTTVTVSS VL: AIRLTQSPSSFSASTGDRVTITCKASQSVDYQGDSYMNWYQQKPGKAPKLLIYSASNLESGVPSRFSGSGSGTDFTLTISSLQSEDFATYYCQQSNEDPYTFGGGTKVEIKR a recorded ELISA value (wash 3x every hour for 4 HRS) greater than or equal to 5000 luminescence signal?
[reply] False

[ask] Has Antibody No: 29 (antibody, human IgG1, kappa, N297A, V domains shown, VH N58Y + T30S; VK A50T; HEK293F supernatant) VH: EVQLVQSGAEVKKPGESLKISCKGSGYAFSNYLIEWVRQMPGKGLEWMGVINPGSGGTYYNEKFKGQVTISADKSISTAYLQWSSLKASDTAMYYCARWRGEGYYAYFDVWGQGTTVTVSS VL: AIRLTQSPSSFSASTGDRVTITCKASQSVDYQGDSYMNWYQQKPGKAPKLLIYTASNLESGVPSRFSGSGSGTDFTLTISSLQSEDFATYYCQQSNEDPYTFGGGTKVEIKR a recorded ELISA value (wash 3x every hour for 4 HRS) greater than or equal to 5000 luminescence signal?
[reply] True

[ask] Has Antibody No: 10 (antibody, human IgG1, kappa, N297A, V domains shown, VK M33L + A50S; HEK293F supernatant) VH: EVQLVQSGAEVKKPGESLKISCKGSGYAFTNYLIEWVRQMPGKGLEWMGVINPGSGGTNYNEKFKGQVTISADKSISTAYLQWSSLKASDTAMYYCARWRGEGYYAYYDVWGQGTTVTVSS VL: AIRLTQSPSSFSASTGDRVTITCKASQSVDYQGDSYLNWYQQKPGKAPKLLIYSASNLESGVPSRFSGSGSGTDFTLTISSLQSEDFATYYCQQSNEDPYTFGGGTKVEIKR a recorded ELISA value (wash 3x every hour for 4 HRS) greater than or equal to 5000 luminescence signal?
[reply] False

[ask] Has Antibody No: 12 (antibody, human IgG1, kappa, N297A, V domains shown, VH N58Y; VK M33L; also called 108924) VH: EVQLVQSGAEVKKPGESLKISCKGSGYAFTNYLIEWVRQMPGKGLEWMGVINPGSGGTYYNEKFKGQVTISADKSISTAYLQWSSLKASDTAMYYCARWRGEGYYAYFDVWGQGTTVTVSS VL: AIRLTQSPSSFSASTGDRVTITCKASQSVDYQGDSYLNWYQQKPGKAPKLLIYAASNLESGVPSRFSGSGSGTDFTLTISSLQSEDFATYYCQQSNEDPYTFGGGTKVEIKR a recorded ELISA value (wash 3x every hour for 4 HRS) greater than or equal to 5000 luminescence signal?
[reply] True

[ask] Has Antibody No: 34 (antibody, human IgG1, kappa, N297A, V domains shown, VK A50T; HEK293F supernatant) VH: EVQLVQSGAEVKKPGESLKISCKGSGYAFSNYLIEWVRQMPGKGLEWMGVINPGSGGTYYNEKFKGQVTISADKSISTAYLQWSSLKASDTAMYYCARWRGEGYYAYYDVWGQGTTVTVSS VL: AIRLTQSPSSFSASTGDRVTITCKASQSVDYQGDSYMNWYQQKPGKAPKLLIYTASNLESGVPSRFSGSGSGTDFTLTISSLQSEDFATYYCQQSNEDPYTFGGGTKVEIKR a recorded ELISA value (wash 3x every hour for 4 HRS) greater than or equal to 5000 luminescence signal?
[reply] False
